# Read-out: Interferon-gamma inducible Protein 10 (IP10), CXCL10 (gene 3627)
# TEST NAME: BSK_KF3CT_IP10: BioMAP Diversity Plus: KF3CT Assay for Interferon-gamma inducible Protein 10 (IP10) Biomarker Activity (AID 2283068)
# RUN CONDITIONS: primary human keratinocytes with fibroblasts; actives raise or lower the signal
Active and inactive are the calls of the source. How the source made its calls: active means hit-call score of the fitted dose curve at least 0.9, where 1 is the maximum; inactive means score below 0.9.
Use one of these outcomes when replying: active, inactive

Some entries whose results are on file:
# COMPOUND, CAT
measured = [
    ("O=[N+]([O-])c1ccc(Nc2ccccc2)cc1", "inactive"),
    ("Cc1ccc2nc3sc(=O)sc3nc2c1", "inactive"),
    ("Cc1ccc(OP(=O)(Oc2ccc(C)cc2C)Oc2ccc(C)cc2C)c(C)c1", "inactive"),
    ("N#CCCC(Br)(C#N)CBr (stereo not drawn)", "active"),
]

Outcome? Cc1cccc(OP(=O)(Oc2cccc(C)c2)Oc2cccc(C)c2)c1
inactive

Outcome? NC(=O)CCl
inactive

Outcome? CCC(C)(C#N)N=NC(C)(C#N)CC (stereo not drawn)
inactive

Outcome? Oc1c(Cl)cc(Cl)cc1Cl
inactive

---

# Read-out: Plasminogen activator inhibitor-1 (PAI1), SERPINE1 (gene 5054)
# TEST NAME: BSK_BE3C_PAI1: BioMAP Diversity Plus: BE3C Assay for Plasminogen activator inhibitor-1 (PAI1) Biomarker Activity (AID 2283037)
# RUN CONDITIONS: primary human bronchial epithelial cells; actives raise or lower the signal
The source made the active and inactive calls. Rule for the calls: active = hit-call score of the fitted dose curve at least 0.9, where 1 is the maximum; inactive = score below 0.9.
Use one of these outcomes when replying: active, inactive

# INPUT SMILES, CAT
rows = [
    ("O=S(=O)(C(Cl)(Cl)Cl)C(Cl)(Cl)Cl", "active"),
    ("CN(C)C(=S)S", "inactive"),
]

Outcome? Cc1cccc(OP(=O)(Oc2cccc(C)c2)Oc2cccc(C)c2)c1
active

---

# TEST NAME: ATG_PBREM_CIS: Attagene CIS-FACTORIAL HepG2 Assay for human Phenobarbital-responsive Enhancer Module (PBREM) (AID 2282955)
# RUN CONDITIONS: HepG2 PBREM cis-reporter, Attagene multiplexed transcription; actives raise or lower the signal
# Method: ATG_CIS is a cell-based, multiplexed-readout assay that uses HepG2, a human liver cell line, with measurements taken at 24 hours after chemical dosing in a 24-well plate.ATG_PBREM_CIS is one of 52 assay component(s) measured or calculated from the ATG_CIS assay. […] This assay endpoint, ATG_PBREM_CIS, was analyzed with bidirectional fitting relative to DMSO as the negative control and baseline of activity. […]
Active and inactive are the calls of the source. Rule for the calls: active = hit-call score of the fitted dose curve at least 0.9, where 1 is the maximum; inactive = score below 0.9.

# INPUT SMILES, AC50
records = [
    ("N#Cc1ccccc1N", "inactive"),
    ("COc1nn(C(=O)NS(=O)(=O)c2ccccc2OC(F)(F)F)c(=O)n1C", "inactive"),
    ("Cc1cc(C(C)(C)c2ccc(O)c(C)c2)ccc1O", "18.1 µM (active)"),
    ("O=C(CCl)Nc1ccccc1", "inactive"),
]

---

# TEST NAME: ATG_NF_kB_CIS: Attagene CIS-FACTORIAL HepG2 Assay for human Nuclear Factor Kappa B (NF-kB) (AID 2282991)
# RUN CONDITIONS: HepG2 Attagene cis-factorial NF-kB reporter mRNA; actives raise or lower the signal
The source made the active and inactive calls. How the source made its calls: active means hit-call score of the fitted dose curve at least 0.9, where 1 is the maximum; inactive means score below 0.9.
Use one of these outcomes when replying: active, inactive

Some entries whose results are on file:
# INPUT SMILES, CAT
rows = [
    ("CC(C)[N+](=O)[O-]", "inactive"),
    ("Cc1ccc(OP(=O)(Oc2ccc(C)cc2C)Oc2ccc(C)cc2C)c(C)c1", "active"),
]

Read the next record carefully.
Outcome? c1csc(-c2ccc(-c3cccs3)s2)c1
inactive
